Tested on: DC 2.4 cells
Assay: Expression of CD80 on DC 2.4 cells, cationic lipid head group and chain length
Type: cell-based
Value kind: Stimulation of CD 80 expression

CCCCCCCCCCCCCC(=O)OCC(COP(=O)(OCC)OCC[N+](C)(C)C)OC(=O)CCCCCCCCCCCCC (stereo not drawn) [DMEPC-14:0] = more potent
CCCCCCCCCCCC(=O)OC[C@H](COP(=O)(OCC)OCC[N+](C)(C)C)OC(=O)CCCCCCCCCCC (stereo partly drawn) [DLEPC-12:0] = more potent
CCCCCCCC/C=C\CCCCCCCC(=O)OC[C@@H](COP(=O)(OCC)OCC[N+](C)(C)C)OC(=O)CCCCCCC/C=C\CCCCCCCC (stereo partly drawn) [DOEPC-18:1] = more potent
